biological target: Muscarinic acetylcholine receptor M3 (Rattus norvegicus, UniProt P08483); test: Antagonist activity at muscarinic M3 receptor in rat trachea assessed as inhibition of carbachol-induced contraction
Sequence (P08483 whole entry): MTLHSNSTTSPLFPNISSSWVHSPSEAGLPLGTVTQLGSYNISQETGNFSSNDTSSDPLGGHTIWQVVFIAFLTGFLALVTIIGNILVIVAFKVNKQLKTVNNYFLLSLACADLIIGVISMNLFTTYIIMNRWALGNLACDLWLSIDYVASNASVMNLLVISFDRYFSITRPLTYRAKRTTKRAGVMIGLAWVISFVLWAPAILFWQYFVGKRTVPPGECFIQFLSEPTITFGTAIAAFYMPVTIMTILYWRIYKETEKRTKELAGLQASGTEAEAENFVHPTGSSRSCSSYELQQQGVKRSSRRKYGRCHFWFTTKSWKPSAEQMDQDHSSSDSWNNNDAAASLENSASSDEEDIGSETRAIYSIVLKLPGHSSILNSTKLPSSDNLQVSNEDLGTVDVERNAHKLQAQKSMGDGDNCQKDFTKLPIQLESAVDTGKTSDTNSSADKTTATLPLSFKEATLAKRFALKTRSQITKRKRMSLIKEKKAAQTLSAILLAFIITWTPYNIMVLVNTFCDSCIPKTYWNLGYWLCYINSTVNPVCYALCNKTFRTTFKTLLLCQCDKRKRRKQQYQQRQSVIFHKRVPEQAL
hey, just use 1 (yes) if measured IC50 is less than 5 nM, otherwise 0 (no)

Input COc1ccc([C@H](Cc2c(Cl)c[n+]([O-])cc2Cl)OC(=O)c2ccc(CNC(C(=O)O[C@@H]3CCN(C)C3)c3ccccc3)s2)cc1OC (stereo in doubt; 92f) ; condition: IC50 strictly below 5 nM. Does it hold?
1 (yes)

Regarding COc1ccc([C@H](Cc2c(Cl)c[n+]([O-])cc2Cl)OC(=O)c2ccc(CNC(C(=O)OC[C@H]3CN4CCC3CC4)c3ccccc3)s2)cc1OC (stereo in doubt; 91g) , kindly confirm whether its IC50 is beneath 5 nM.
0 (no)

Please check: IC50 for COc1ccc([C@H](Cc2c(Cl)c[n+]([O-])cc2Cl)OC(=O)c2ccc(CNC(C(=O)OC3C[C@H]4CC[C@H](C3)N4C)c3ccccc3)s2)cc1OC (stereo in doubt; 91d) , strictly under 5 nM or not?
0 (no)

Please check: IC50 for COc1ccc([C@H](Cc2c(Cl)c[n+]([O-])cc2Cl)OC(=O)c2ccc(CNC(C(=O)O[C@H]3CN4CCC3CC4)c3ccccc3)s2)cc1OC (stereo in doubt; 91a) , strictly under 5 nM or not?
1 (yes)

Regarding COc1ccc([C@H](Cc2c(Cl)c[n+]([O-])cc2Cl)OC(=O)c2ccc(CNC(C(=O)O[C@@H]3CCN(C)C3)c3ccccc3)s2)cc1OC (stereo in doubt; 91f) , kindly confirm whether its IC50 is beneath 5 nM.
1 (yes)

IC50 under 5 nM? Item: COc1ccc([C@H](Cc2c(Cl)c[n+]([O-])cc2Cl)OC(=O)c2ccc(CNC(C(=O)OC3CCN(C)CC3)c3ccccc3)s2)cc1OC (stereo in doubt; 92e)
1 (yes)

Quick check: IC50 of COc1ccc([C@H](Cc2c(Cl)c[n+]([O-])cc2Cl)OC(=O)c2ccc(CNC(C(=O)OC3CCN(C)CC3)c3ccccc3)s2)cc1OC (stereo in doubt; 91e) under 5 nM?
0 (no)

Does COc1ccc([C@H](Cc2c(Cl)c[n+]([O-])cc2Cl)OC(=O)c2ccc(CNC(C(=O)OCCN(C)C)c3ccccc3)s2)cc1OC (stereo in doubt; 92j) have IC50 strictly under 5 nM?
0 (no)

Is IC50 strictly under 5 nM for the entry COc1ccc([C@H](Cc2c(Cl)c[n+]([O-])cc2Cl)OC(=O)c2ccc(CNC(C(=O)OC[C@H]3CCN3C)c3ccccc3)s2)cc1OC (stereo in doubt; 91i) ?
0 (no)
